Data provenance is patent US20260274955A1.

- assay_system: T1, anti-CD28 Fab (SEQ ID NOs: 202, 203)
- T1 construct: biotinylated and captured on neutravidin coated plates in the phage ELISA
- T1 sequence (VH, as listed by the source, chain 1 of 2): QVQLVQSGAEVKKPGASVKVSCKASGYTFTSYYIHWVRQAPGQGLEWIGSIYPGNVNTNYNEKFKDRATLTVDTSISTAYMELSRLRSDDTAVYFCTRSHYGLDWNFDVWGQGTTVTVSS
- T1 sequence (VL, as listed by the source, chain 2 of 2): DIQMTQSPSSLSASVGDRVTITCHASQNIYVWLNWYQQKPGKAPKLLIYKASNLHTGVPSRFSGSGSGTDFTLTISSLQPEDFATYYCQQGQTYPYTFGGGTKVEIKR
- assay_explanation: phage binding ELISA; biotinylated Fab on neutravidin plate;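 also: clonal phage supernatants added to Fab wells pretreated with CD28 antigen or with blocking buffer only, bound phage read out via HRP-linked anti-M13 antibody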
Record form. Attribute: Anti-CD28 Fab (SEQ ID NOs: 202, 203) signal. Fill in for each entry.
The answer should be written as a number, with no unit following it.

QUERY: Can you share its Anti-CD28 Fab (SEQ ID NOs: 202, 203) signal? I mean this binder: YCDGHLPMYFAKCM [Phage-351]
RESULT: 1.83

QUERY: Fill blank: measured Anti-CD28 Fab (SEQ ID NOs: 202, 203) signal of the binder YCDGHAIQYIGKCL [Phage-422] is ____.
RESULT: 1.72

QUERY: Item under review: YCDGHAREYMTKCL [Phage-359] . Reported Anti-CD28 Fab (SEQ ID NOs: 202, 203) signal?
RESULT: 1.82

QUERY: Any idea what Anti-CD28 Fab (SEQ ID NOs: 202, 203) signal was measured for YCDGHSSEYIVKCL [Phage-352] ?
RESULT: 1.83

QUERY: # query: Anti-CD28 Fab (SEQ ID NOs: 202, 203) signal of entry YCEGHIPEYMAKCL [Phage-318]
RESULT: 1.89

QUERY: So what's the measured Anti-CD28 Fab (SEQ ID NOs: 202, 203) signal for this one? YCDGHLQIYLWKCL [Phage-426]
RESULT: 1.72

QUERY: Tell me the measured Anti-CD28 Fab (SEQ ID NOs: 202, 203) signal of YCDGHSPEYIAKCL [Phage-374] , please.
RESULT: 1.79

QUERY: I have this binder here, YCAGHLPEYLDKCL [Phage-430] , and I need its recorded Anti-CD28 Fab (SEQ ID NOs: 202, 203) signal.
RESULT: 1.71
